Tested on: phospho-p90 RSK (RSK1 Thr359/Ser363) in A375 (Braf V600E) cells
Assay: Phospho-p90 RSK ELISA using A375 (Braf V600E) cells
Type: cell-based
Conditions: Homo sapiens, A-375, 2 hours compound treatment, read-out: Cellular Phospho-p90RSK IC50
Attribute measured: IC50

>  <Compound>
Cc1cc(-c2n[nH]c3cc4c(cc23)CN([C@@H]2CCCN(C)C2)C(=O)N4)ccn1 [Example 33]

>  <Attribute measured>
IC50

>  <Assay result>
> 1000 nM

$$$$
>  <Compound>
Cc1cc(-c2n[nH]c3cc4c(cc23)CN([C@H](C)c2ccccc2)C(=O)N4)ccn1 [Example 2]

>  <Attribute measured>
IC50

>  <Assay result>
≤ 250 nM

$$$$
>  <Compound>
Cc1cc(-c2n[nH]c3cc4c(cc23)CN([C@H]2CN(C)C[C@@H]2c2ccccc2)C(=O)N4)cc(C)n1 [Example 307]

>  <Attribute measured>
IC50

>  <Assay result>
250 to 1000 nM

$$$$
>  <Compound>
Cc1cc(-c2n[nH]c3cc4c(cc23)CN(Cc2ccccc2)C(=O)N4)ccn1 [Example 372]

>  <Attribute measured>
IC50

>  <Assay result>
≤ 250 nM

$$$$

----------
Tested on: A375 cells
Assay: Tumor cell line proliferation assay (CellTiter Glo), A375
Assay type: cell-based
Conditions: Homo sapiens, A-375, 96 h, read-out: A375 (V599E) Cell Proliferation IC50
The following molecules are shown together with reported IC50 values.
Attribute measured: IC50

>  <Molecule>
CC(c1ccccc1)c1cc2cc3c(-c4ccncc4)n[nH]c3cc2[nH]c1=O (stereo not drawn)

>  <Attribute measured>
IC50

>  <Assay result>
≤ 250 nM

$$$$
>  <Molecule>
Cn1cc(-c2n[nH]c3cc4c(cc23)CN([C@@H]2CCCN(Cc3ccc(F)cc3F)C2)C(=O)N4)cn1

>  <Attribute measured>
IC50

>  <Assay result>
≤ 250 nM

$$$$
>  <Molecule>
COc1ncc(-c2n[nH]c3cc4c(cc23)CN([C@@H]2CCCN(Cc3c(F)cccc3OC)C2)C(=O)N4)cn1

>  <Attribute measured>
IC50

>  <Assay result>
≤ 250 nM

$$$$
>  <Molecule>
Cc1cc(-c2n[nH]c3cc4c(cc23)CN([C@@H]2CCCN(Cc3cccs3)C2)C(=O)N4)ccn1

>  <Attribute measured>
IC50

>  <Assay result>
≤ 250 nM

$$$$
>  <Molecule>
Cc1cc(-c2n[nH]c3cc4c(cc23)CN(Cc2cc(F)cc(F)c2)C(=O)N4)ccn1

>  <Attribute measured>
IC50

>  <Assay result>
250 to 1000 nM

$$$$
>  <Molecule>
Cc1cc(-c2n[nH]c3cc4c(cc23)CN([C@@H]2CCN(CC(F)(F)F)C2)C(=O)N4)cc(C)n1

>  <Attribute measured>
IC50

>  <Assay result>
≤ 250 nM

$$$$
>  <Molecule>
Cc1cc(-c2n[nH]c3cc4c(cc23)CN([C@@H]2CCCN(C(C)c3ccccc3)C2)C(=O)N4)ccn1 (stereo partly drawn)

>  <Attribute measured>
IC50

>  <Assay result>
≤ 250 nM

$$$$
>  <Molecule>
Cc1cc(-c2n[nH]c3cc4c(cc23)CN(Cc2ccc(F)c(Cl)c2)C(=O)N4)cc(C)n1

>  <Attribute measured>
IC50

>  <Assay result>
250 to 1000 nM

$$$$
>  <Molecule>
COc1ncc(-c2n[nH]c3cc4c(cc23)CN(Cc2cccc(Cl)c2)C(=O)N4)cn1

>  <Attribute measured>
IC50

>  <Assay result>
≤ 250 nM

$$$$
>  <Molecule>
CC(c1ccccc1)c1cc2cc3c(-c4ccnc(N5CCN(C)CC5)c4)n[nH]c3cc2[nH]c1=O (stereo not drawn)

>  <Attribute measured>
IC50

>  <Assay result>
≤ 250 nM

$$$$
>  <Molecule>
Cc1ncc(-c2n[nH]c3cc4c(cc23)CN([C@@H]2CCCN(Cc3ccc(F)cc3F)C2)C(=O)N4)cn1

>  <Attribute measured>
IC50

>  <Assay result>
≤ 250 nM

$$$$
>  <Molecule>
COc1ccc(-c2n[nH]c3cc4c(cc23)CN(Cc2cc(F)cc(F)c2)C(=O)N4)cn1

>  <Attribute measured>
IC50

>  <Assay result>
250 to 1000 nM

$$$$
>  <Molecule>
COc1cc(-c2n[nH]c3cc4c(cc23)CN([C@@H]2CCCN(Cc3ccc(F)cc3F)C2)C(=O)N4)ccn1

>  <Attribute measured>
IC50

>  <Assay result>
≤ 250 nM

$$$$
>  <Molecule>
Cn1cc(-c2n[nH]c3cc4c(cc23)CN(Cc2ccc(F)c(Cl)c2)C(=O)N4)cn1

>  <Attribute measured>
IC50

>  <Assay result>
250 to 1000 nM

$$$$
>  <Molecule>
Cc1cc(-c2n[nH]c3cc4c(cc23)CN([C@H](C)c2cccc(Cl)c2)C(=O)N4)ccn1

>  <Attribute measured>
IC50

>  <Assay result>
250 to 1000 nM

$$$$
